Data provenance is patent US20190321401A1.

Target: T1, HPV 16 E7 peptide on HLA-A*02:01 (human)
T1 peptide: YMLDLQPET
Assay: multimer staining
resultType: binding result

TCR 59 (TCR, V domains shown) Valpha: GQQVMQIPQYQHVQEGEDFTTYCNSSTTLSNIQWYKQRPGGHPVFLIQLVKSGEVKKQKRLTFQFGEAKKNSSLHITATQTTDVGTYFCAPKREYGNKLVFGAGTILRVKS Vbeta: EPEVTQTPSHQVTQMGQEVILRCVPISNHLYFYWYRQILGQKVEFLVSFYNNEISEKSEIFDDQFSVERPDGSNFTLKIRSTKLEDSAMYFCAYSGRASYEQYFGPGTRLTVT    recognises
TCR 58 (TCR, V domains shown) Valpha: RKEVEQDPGPFNVPEGATVAFNCTYSNSASQSFFWYRQDCRKEPKLLMSVYSSGNEDGRFTAQLNRASQYISLLIRDSKLSDSATYLCVVNRDNYGQNFVFGPGTRLSVLP Vbeta: EPEVTQTPSHQVTQMGQEVILRCVPISNHLYFYWYRQILGQKVEFLVSFYNNEISEKSEIFDDQFSVERPDGSNFTLKIRSTKLEDSAMYFCASTPRSSYEQYFGPGTRLTVT    recognises
